# Measurement Target: bCA IV (Bos taurus)
# Sequence (Q95323 19-284): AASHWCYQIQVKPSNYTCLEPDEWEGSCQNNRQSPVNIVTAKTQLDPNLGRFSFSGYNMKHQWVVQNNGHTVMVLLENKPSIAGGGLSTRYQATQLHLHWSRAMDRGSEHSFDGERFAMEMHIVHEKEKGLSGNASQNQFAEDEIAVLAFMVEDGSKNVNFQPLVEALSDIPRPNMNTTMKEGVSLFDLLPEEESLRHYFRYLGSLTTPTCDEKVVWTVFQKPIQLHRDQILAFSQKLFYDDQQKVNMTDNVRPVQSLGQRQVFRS
# Test: CA inhibition, esterase method (4-nitrophenylacetate hydrolysis)
Output: class label from Ki. Mapping: L = under 10 nM, M = from 10 nM up to 20 nM, H = 20 nM and over

Compound	Category Label
NS(=O)(=O)c1ccc(CNC(=S)N2CCCC2C(=O)O)cc1 (stereo not drawn)	H
NS(=O)(=O)c1ccc(CNC(=S)NC(Cc2c[nH]c3ccccc23)C(=O)O)cc1 (stereo not drawn)	M
NS(=O)(=O)c1ccc(CNC(=S)NCCC(=O)O)cc1	H
NS(=O)(=O)c1ccc(CNC(=S)NC(C(=O)O)C(O)c2ccccc2)cc1 (stereo not drawn)	L
NS(=O)(=O)c1ccc(CNC(=S)NC(Cc2ccccc2)C(=O)O)cc1 (stereo not drawn)	M

Problem: Quick check: band for NS(=O)(=O)c1ccc(CNC(=S)NC(Cc2ccc(O)c(O)c2)C(=O)O)cc1 (stereo not drawn)
Solution: M

Problem: Quick check: band for NS(=O)(=O)c1ccc(CNC(=S)NC(Cc2ccc(O)cc2)C(=O)O)cc1 (stereo not drawn)
Solution: L

Problem: Quick check: band for CC(C)CC(NC(=S)NCc1ccc(S(N)(=O)=O)cc1)C(=O)O (stereo not drawn)
Solution: M

Where these numbers come from: patent EP1421935A1
